Measured Vd values are reported for all entries that follow.
experiment: Volume of distribution in steady state in CD-1 mouse at 2 mg/kg, iv
Type: ADME, organism-based
condition-info: in vivo, read-out: Vdss
Remember to quote the unit after the number.

Example cases with answers are listed next.
> print(dat)
                                   compound  recorded.value
1  CNC(=O)c1cc2c(cc1F)C[C@]1(C2)C(=O)N(c2cnc(C#N)c(C(F)(F)F)c2)C(=S)N1C(C)C        1.9 L/kg
2  CN1C(=S)N(c2cnc(C#N)c(C(F)(F)F)c2)C(=O)C12Cc1ccc(OC3CCNCC3)cc1C2 (configuration not stated)       16.3 L/kg
3  CNC(=O)c1cc2c(cc1F)C[C@@]1(C2)C(=O)N(c2ccc(C#N)c(C(F)(F)F)c2)C(=S)N1C(C)C        1.8 L/kg
4  CNC(=O)c1cc2c(cc1F)C[C@]1(C2)C(=O)N(c2ccc(C#N)c(C(F)(F)F)c2)C(=S)N1C(C)C        1.7 L/kg
5  CNC(=O)c1cc2c(cc1F)CC1(C2)C(=O)N(c2ccc(C#N)c(C(F)(F)F)c2)C(=S)N1C(C)C (configuration not stated)        1.7 L/kg

Lab note: measured Vd of CNC(=O)c1cc2c(cc1F)CC1(C2)C(=O)N(c2cnc(C#N)c(C(F)(F)F)c2)C(=S)N1C(C)C (configuration not stated) was 4.8 L/kg

Input CNC(=O)c1cc2c(cc1F)C[C@@]1(C2)C(=O)N(c2cnc(C#N)c(C(F)(F)F)c2)C(=S)N1C(C)C . Output Vd: 2.3 L/kg

---

experiment: Metabolic stability in dog liver microsomes assessed as unchanged parent compound remaining at 10 uM incubated for 60 mins in presence of [13C2,15N-glycine]GSH and NADPH by LC-MS/MS analysis
Type: ADME, Canis lupus familiaris, Microsome
condition-info: read-out: Stabilty
experimental-endpoint: remaining at 1 h, 10 µM (%)
Express the result in % but write the number alone.

> print(dat)
                                   compound    experimental.endpoint  unit.label  recorded.value
1  CN1C(=S)N(c2cnc(C#N)c(C(F)(F)F)c2)C(=O)C12Cc1ccc(OC3CCNCC3)cc1C2 (stereo not drawn)  remaining at 1 h, 10 µM           %            98.4
2  N#Cc1ncc(N2C(=O)C3(CCC3)N(c3ccc(O)cc3)C2=S)cc1C(F)(F)F  remaining at 1 h, 10 µM           %            78.7

Now consider a different compound.
Reported remaining at 1 h, 10 µM of CN1C(=S)N(c2cnc(C#N)c(C(F)(F)F)c2)C(=O)C12Cc1ccc(O)cc1C2 (stereo not drawn) : 52.3
